Molecular target: MyD88^TIR (Homo sapiens)
Construct: MyD88 (residues 148–296); 6xHis; made in house; host or cells: E. coli BL21 (DE3)
Sequence (Q99836 148-296): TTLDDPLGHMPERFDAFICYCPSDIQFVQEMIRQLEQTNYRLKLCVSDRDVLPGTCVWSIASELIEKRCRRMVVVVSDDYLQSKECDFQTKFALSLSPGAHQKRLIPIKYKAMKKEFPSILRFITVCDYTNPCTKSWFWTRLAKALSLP
Experiment: T‐Surf phage library (P8 and P3) selection against MyD88^TIR, four rounds, NGS read counts
Type: binding
Conditions: P8_MyD88: rank by NGS read count before grouping
Protocol: T‐Surf libraries were screened against the immobilized TIR domains of two major human TLR adaptor proteins, MAL^TIR and MyD88^TIR, allowing cross‐species selection of TIR‐binding motifs with 190 946 TIR‐derived peptides in a single binding assay (Scheme 1). Enriched phage pools from the fourth round of selection were analyzed using NGS after barcoding the peptide‐coding regions of the phage pools. […]
endpoint_label: Rank (before)
No unit in the answer, only the number.

sequence_content	Rank (before)
CARDELLQILHARELF	1349
VQWDDSWFWEKLLYA	2248
NPADLDWFYERLVSLF	3878
SQRADCSWEWQKMLYP	1659
DSLFWDRLLYSLQFTE	3097

# input Look at this sequence and give its reported Rank (before). DPQGLDWYYVRLVSLL
# output 2666

# input Fill blank: measured Rank (before) of the sequence DWVWDYLLQSGRPSG is ____.
# output 2451

# input Data request, read-out Rank (before), for WALNELQKILNAKETI
# output 1553

# input // returns reported Rank (before) for input DPQDLDCYYERLVSLF
# output 2741

# input Rank (before) lookup needed for YELAFSHCCLFEGHST , thanks.
# output 1925

# input Rank (before) lookup needed for DPQDLDWFYERVVGLF , thanks.
# output 2759

# input For the sequence YSQHDVLWVKNFLSHI , what Rank (before) is on record?
# output 2122

# input # Rank (before) lookup, item IAADHLSYLGRLLLSR
# output 3614

# input Field request: Rank (before) | item: WDFASKMEQFLDRLYY
# output 1632

# input Can you look up the measured Rank (before) of DPQDLDWFYERLVAC for me?
# output 2779

# input Quick check: Rank (before) of YLLRSLFQTLFPRRTE ?
# output 2020

# input Tell me the measured Rank (before) of WDFGTAGKNPGSAWHH , please.
# output 1573

# input Name the reported Rank (before) value associated with the sequence ELDFSHFWLFDAGGDAAI
# output 3183

# input Need Rank (before), item YPQDLQWLYERLGSLI
# output 2104

# input // query Rank (before) value for entry QLIGCGNTFFRWKKKIR
# output 3572

# input Request the reported Rank (before) associated with DYASSSWALDVLWNIF
# output 2507

---

biological target: MyD88^TIR (Homo sapiens); construct: MyD88 (residues 148–296); 6xHis; made in house; host or cells: E. coli BL21 (DE3); test: T‐Surf phage library (P8 and P3) selection against MyD88^TIR, four rounds, NGS read counts; assay type: binding; settings: P8_MyD88: rank by NGS read count before grouping
endpoint_label: Rank (before)
Just the number, please.

The cases that follow already have their Rank (before) on record.
sequence_content	test_result
LGYQWIAGEYFVGIED	3320
DWVCDYLLPDREGPAG	2474
VTSSWALEELRHIMEL	2269
DFLSHLIKRLAVCTS	2347

Now, please, on to the next sequence.
# input Need Rank (before) of ELDFSHFWLFDGHATGAA , thanks.
# output 3187
